system: RAW macrophages; assay: NO production (Griess assay), LPS/IFNγ-activated RAW264.7 macrophages; format: cell-based, mouse; conditions: 10 μM, 24 hours, 1 μM GABA, LPS/IFNγ
Item-by-item account of Inhibition of NO production (%) RAW macrophages 10 μM
Answer with a number only, understood to be in %.

Example cases with answers are listed next.
C#Cc1ccc2c(c1)C(c1ccccc1F)=N[C@@H](C)C(=O)N2 ... 3
C#Cc1ccc2c(c1)C(c1ccccc1F)=NC(C)c1c(C(=O)[O-])ncn1-2.[Na+] (stereo not drawn) ... 5
CC1N=C(c2ccccc2F)c2cc(C#C[Si](C)(C)C)ccc2-n2cnc(-c3cnco3)c21 (stereo not drawn) [GL-III-72] ... 57

[ask] Report Inhibition of NO production (%) RAW macrophages 10 μM, nothing else, for this molecule: C#Cc1ccc2c(c1)C(c1ccccc1F)=NC(C)C(=O)N2C (stereo not drawn) [GL-III-25]
[reply] 38

====

tested on: Mouse microglia; test: NO production (Griess assay), LPS/IFNγ-activated mouse microglia; format: cell-based; settings: Mus musculus, Microglia, 24 h
Response key: Met means inhibition at 50 µM >= 60%; Not met means inhibition at 50 µM < 60%.

Look over these answered cases.
C#Cc1ccc2c(c1)C(c1ccccc1)=NCc1c(-c3cnco3)ncn1-2 ... Not met
C#Cc1ccc2c(c1)C(c1ccccn1)=N[C@H](C)c1c(-c3nc(CC)no3)ncn1-2 ... Not met
C#Cc1ccc2c(c1)C(c1ccccc1F)=N[C@H](C)c1c(-c3nc(CC)no3)ncn1-2 ... Met
C#Cc1ccc2c(c1)C(c1ccccc1F)=N[C@H](C)c1c(-c3nc(C(C)C)no3)ncn1-2 ... Met
Cc1noc(-c2ncn3c2[C@@H](C)N=C(c2ccccc2F)c2cc(Br)ccc2-3)n1 ... Met

Let's switch to this compound now.
[ask] Could you tell me if the measured inhibition at 50 µM of `Cc1noc(-c2ncn3c2[C@@H](C)N=C(c2ccccn2)c2cc(C4CC4)ccc2-3)n1` reaches 60% or more?
[reply] Not met

====

biological target: MOR (μ opioid receptor) (Homo sapiens); construct: expressed in transfected cells; host or cells: HEK293; experiment: MOR radioligand binding ([3H]-DAMGO, HEK293 cell homogenates); settings: Percent inhibition at 10,000 nM; [3H]-DAMGO
Sequence (P35372 whole entry, species assumed): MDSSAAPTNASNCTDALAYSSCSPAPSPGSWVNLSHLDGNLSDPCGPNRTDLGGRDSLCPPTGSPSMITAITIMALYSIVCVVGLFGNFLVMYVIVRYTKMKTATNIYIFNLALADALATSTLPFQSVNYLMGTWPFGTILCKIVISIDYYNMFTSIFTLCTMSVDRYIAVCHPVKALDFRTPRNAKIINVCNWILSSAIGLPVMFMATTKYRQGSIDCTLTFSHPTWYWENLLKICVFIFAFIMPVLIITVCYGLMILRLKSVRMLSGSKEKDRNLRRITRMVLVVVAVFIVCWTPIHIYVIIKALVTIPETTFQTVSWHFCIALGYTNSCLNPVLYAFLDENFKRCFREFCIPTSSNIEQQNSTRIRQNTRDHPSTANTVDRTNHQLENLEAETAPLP
Item-by-item account of inhibition at 10 µM
Answer with a number only, understood to be in %.

C#Cc1ccc2c(c1)C(c1ccccc1F)=N[C@@H](C)c1c(C(=O)NC)ncn1-2 [MP-II-023] ... 0
C#Cc1ccc2c(c1)C(c1ccccc1F)=N[C@@H](C)c1c(C(=O)OCCC)ncn1-2 [GL-I-32] ... 9

[ask] Report inhibition at 10 µM, nothing else, for this compound: C[C@H]1N=C(c2ccccc2F)c2cc(Br)ccc2-n2cnc(C(=O)N(C)C)c21 [GL-III-69]
[reply] 0

[ask] Report inhibition at 10 µM, nothing else, for this compound: C#Cc1ccc2c(c1)C(c1ccccc1F)=N[C@@H](C)c1c(C(=O)OCC)ncn1-2 [SH-053-2′F-S-CH3]
[reply] 7

====

Item-by-item account of Ki
target: BZR (benzodiazepine site of GABAAR); experiment: GABAAR/BZR binding, rat brain homogenate with 3H-flunitrazepam; conditions: rat brain homogenate, 3H-flunitrazepam
Answer with a number only, understood to be in nM.

Example cases with answers are listed next.
C#Cc1ccc2c(c1)C(c1ccccc1F)=N[C@H](C)c1c(C(=O)OC)ncn1-2 ... 445
C#Cc1ccc2c(c1)C(c1ccccn1)=NCc1c(C(=O)OC)ncn1-2 ... 277
C#Cc1ccc2c(c1)C(c1ccccc1F)=N[C@H](C)c1c(C(=O)NC)ncn1-2 ... 83
C#Cc1ccc2c(c1)C(c1ccccc1F)=N[C@@H](C)c1c(C(=O)NC3CC3)ncn1-2 ... 20
C#Cc1ccc2c(c1)C(c1ccccn1)=N[C@H](C)c1c(C(=O)OCC)ncn1-2 ... 1140
CCOC(=O)c1ncn2c1[C@H](C)N=C(c1ccccc1F)c1cc(Br)ccc1-2 [SH-I-048B] ... 96
C#Cc1ccc2c(c1)C(c1ccccc1F)=N[C@@H](C)c1c(-c3cnco3)ncn1-2 ... 26
C#Cc1ccc2c(c1)C(c1ccccc1F)=N[C@H](C)c1c(C(=O)N(C)C)ncn1-2 ... 506
C[C@H]1N=C(c2ccccn2)c2cc(Br)ccc2-n2cnc(C(=O)O)c21 ... 181
C#Cc1ccc2c(c1)C(c1ccccc1F)=N[C@@H](C)c1c(C(=O)OC(C)(C)CC)ncn1-2 ... 117

Now, please, on to the next compound.
[ask] Look up and report Ki, with BZR (benzodiazepine site of GABAAR) as system, for `C#Cc1ccc2c(c1)C(c1ccccc1F)=N[C@H](C)c1c(-c3nc(C(C)C)no3)ncn1-2`
[reply] 814

Provenance of the data: patent US20240279232A1
